Tested on: SNB-19
Test: NCI tumour cell line growth inhibition, 48 h
The source made the active and inactive calls. No stated cut-off is given here; in the data, active = GI50 up to about 1.1 µM and inactive = higher.
measure.name: GI50

These solved cases illustrate the format of a correct answer.
- compound: "N#CC1(C2SCC[S+]2[O-])C2=C(C(=O)c3ccccc3C2=O)N2CCCC21 (stereo unspecified)"
  value: "6.35 µM (inactive)"
- compound: "COc1ccc2c(c1)NC1(CCN(CCCC(=O)c3ccc(F)cc3)CC1)N=N2"
  value: "35.3 µM (inactive)"
- compound: "COc1ccc(OCC(=N/NC(=O)c2ccncc2)/N=C/c2ccncc2)cc1"
  value: "> 100 µM (inactive)"
- compound: "NS(=O)(=O)c1ccc(NNc2c3ccccc3nc3ccccc23)cc1"
  value: "14.7 µM (inactive)"
- compound: "C=CCSc1nc2c(N)ncnc2n1C1OC(CO)C(O)C1O (stereo unspecified)"
  value: "> 100 µM (inactive)"

From here, focus on the item given below.
Problem: Query for SNB-19: what GI50 does the record show for CC(=O)NCC1OC2COC(c3ccccc3)OC2C(NC(=O)c2ccccc2)C1OC(=O)c1ccccc1 (stereo unspecified) ?
Solution: > 100 µM (inactive)

###

Test system: Hs-578T
Experiment: NCI tumour cell line growth inhibition, 48 h
Calls of active or inactive are those of the source. No stated cut-off is given here; in the data, active = GI50 up to about 1.1 µM and inactive = higher.
measure.name: GI50

- compound: "C=C1C(=O)OC2CC1C(O)C/C(C)=C/CC/C(C)=C/C(O)CC2C (stereo unspecified)"
  GI50: "3.03 µM (inactive)"

From here, focus on the item given below.
Problem: Which GI50 value belongs to "CS(=O)(=O)OCCN1CCC2(CC1)SSC1(CCN(CCOS(C)(=O)=O)CC1)S2" ?
Solution: 82.6 µM (inactive)

###

System: SF-539
Assay: NCI tumour cell line growth inhibition, 48 h
The source made the active and inactive calls. Cut-off read from the data, not from the text of the source: active = GI50 up to about 1.1 µM and inactive = higher.
measure.name: GI50

- compound: "Cc1ccc(S(=O)(=O)c2scc(-c3ccccc3)c2C)cc1"
  GI50: "61 µM (inactive)"
- compound: "COc1cc(OC)cc(Oc2nc3ccccc3nc2C(F)(F)F)c1"
  GI50: "52.5 µM (inactive)"
- compound: "COC(=O)C(=C\\Sc1ccccc1)/C=C/C(=O)OC(C)(C)C"
  GI50: "13.6 µM (inactive)"
- compound: "CN(C)CC1CCC/C(=C\\c2ccc(OC(=O)/C=C/c3ccc(Cl)cc3)cc2)C1=O (configuration not stated)"
  GI50: "2.57 µM (inactive)"
- compound: "COCn1cnc2c(=O)n(-c3ccc(OC)cc3)c(=S)n(-c3ccc(OC)cc3)c21"
  GI50: "> 100 µM (inactive)"

Problem: Query for SF-539: what GI50 does the record show for "Cc1cccc(NC2=NCCO2)c1Cl" ?
Solution: > 100 µM (inactive)

Problem: Query for SF-539: what GI50 does the record show for FC(F)(F)C12C34C=CC5(CCC6(C=CC1(CC3)O6)C52C(F)(F)F)O4 (configuration not stated) ?
Solution: > 100 µM (inactive)

Problem: Query for SF-539: what GI50 does the record show for "O=[N+]([O-])C(=C(Nc1ccccc1)Nc1ccccc1)/C(Cl)=C(\Cl)[N+](=O)[O-]" ?
Solution: 1.84 µM (inactive)

Problem: Query for SF-539: what GI50 does the record show for "N#Cc1c(-c2ccc([N+](=O)[O-])cc2)c2c([nH]c1=O)-c1ccccc1CCC2" ?
Solution: 52.7 µM (inactive)

Problem: Query for SF-539: what GI50 does the record show for "Nc1nc(-c2ccccc2)nc2oc(-c3cccs3)nc12" ?
Solution: > 100 µM (inactive)

Problem: Query for SF-539: what GI50 does the record show for "Cc1ccc(-c2n[nH]c(=O)n2NC(=O)c2ccccc2C(=O)O)cc1" ?
Solution: > 100 µM (inactive)

Problem: Query for SF-539: what GI50 does the record show for "CCc1nc2c(O)ccc(O)c2nc1C" ?
Solution: 17 µM (inactive)
